- System under test: T1, mouse TMEM106B (mouse, UniProt Q80X71 2-275)
- T1 construct: Full-length cDNA transiently transfected into HEK293 cells; also called muTMEM106B; murine TMEM106B
- Measurement protocol: flow cytometry, HEK293 cells transiently transfected with murine TMEM106B
Observed property: fold-change in binding over parental HEK293 cells (fold)
Express the result in fold but write the number alone.

For the binder TM-65 (antibody, V domains shown, Purified from mouse hybridoma) VH: QVQLQQPGAEFVKPGASVRLSCKTSGYTFTSSWMHWVKQRPGQGLEWIGEINPKNGGTNYNEKFKTKATLTVDKSSNTAYMQLSSLTSEDSAVYYCTIPTWFTYWGQGTLVTVSS VL: DIQMNQSPSSLSASLGDTITITCRASQNINIWLSWYQQKPGNVPKLLIYKASNLHTGVPSRFSGSGSGTGFTLTISSLQPEDIATYYCLQGQSYPYTFGGGTKLGIK , report fold-change in binding over parental HEK293 cells.
1.35

Answer with reported fold-change in binding over parental HEK293 cells of TM-56 (antibody, V domains shown, Purified from mouse hybridoma) VH: QVHLQQSGAELAKPGASVKLSCKASGYTFTSYWMHWVKQRPGQGLEWIGYINPSSGYSKYNQRFKDKATLTADKSSTTAYMHLSSLTYADSAVYYCTREGGSISDWYFDVWGTGTTVTVSS VL: DIEMTQAAPSVPVTPGESVSISCRSSKSLLQNNGNTYLYWFLQRPGQPPQLLIYRMSNLASGVPDRFSGSGSGTAFTLRISRVEAEDVGVYYCMQHLEYPYTFGGGTKLEIK
0.47

Fill in fold-change in binding over parental HEK293 cells for record TM-78 (antibody, V domains shown, Purified from mouse hybridoma) VH: QVQLQQPGAELVKPGASVKLSCKASGYTFTNHWMHWVRQRPGQGLEWIGNIDPSDSDTHYNHKFKDKATLIVDKSSSTAYLQLSSLTSEDSAVFYCARSRGGYYDYGEAMDYWGQGTSVTVSS VL: DIVMTQATPSIPVTPGESVSISCRSSKSLLHVNGNTYLFWFLQRPGQSPQLLIYRMSNLASGVPDRFSGSGSGTAFTLRISRVEAEDVGVYYCMQHLEYPFTFGSGTKLEIK
0.99

***
For TM-66 (antibody, V domains shown, Purified from mouse hybridoma) VH: EVMLVESGGALVEPGGSLKLSCAASGITFSNYAMSWIRQTPEKRLEWVATIGSVGSYTYYPDSVKGRFTISRDNARNTLYLQMSSLRSEDTAMYYCARQEGSSHFDYWGQGTTLTVSS VL: DVVVTQTPPSLPVSFGDQVSISCRSSQSLVNSYGKTFLSWYLHKPGQSPQLLIYGISNRFSGVPDRFSGSGSGTVFTLKISTIKPEDLGMYYCLQGTHPPLTFGAGTKLEMK , write its fold-change in binding over parental HEK293 cells.
4.07

Tell me measured fold-change in binding over parental HEK293 cells for TM-94 (antibody, V domains shown, Purified from mouse hybridoma) VH: EVQLQQSGPELVKPGASVKIPCKASGYTFTDYNMDWVKQSHGKSLEWIGDINPYNGGTLYNQKFKGKATLTVDKSSNTAYMEIRSLTYEDTAVYYCARVGYHGTPDYWGQGTTVTVSS VL: DVVMTQTPLSLPVSLGDQASISCRSSQSLVYSNGNTYLHWYLQRPGQSPKLLIYKVSNRFSGVPDRFSGSGSGTDFTLKISRVEAEDLGVYFCSQSTHVYTFGGGTKLEIK please.
2.35
